Just for reference, paper PMC10397247 is where these values come from.

# target: T1, 4H3497-bA
# T1 chain: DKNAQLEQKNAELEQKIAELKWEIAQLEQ
# experiment: two-hybrid library CCNG1;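 also: natural log of median RNA to DNA barcode read ratio; higher means stronger binding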
Listed below: interaction score values for each entry.
property-name: interaction score

| binder | quantitative-result |
| --- | --- |
| DENAQLKQKNAELKQEIAELEWEIAQLEQ [4H1985-bA] | -1.03 |
| DENAQLKQEIAELEQEIAELEWKNAQLKQ [4H1544-bA] | 0.215 |
| DKIAQLKQKIAELKQKNAELEWENAQLEQ [4H2931-bA] | -1.04 |
| DKNAQLEQEIAELKQKIAELEWKNAQLEQ [4H3175-bA] | 0 |
| DKNAQLEQKNAELEQEIAELEWKIAQLKQ [4H3462-bA] | 0.917 |
| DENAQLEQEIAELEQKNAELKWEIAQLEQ [4H1081-bA] | -1.1 |
| DKNAQLEQENAELKQKIAELEWEIAQLKQ [4H3298-bA] | -0.263 |
| DENAQLEQKIAELKQEIAELEWENAQLKQ [4H1348-bA] | -0.616 |
